B1: Twister Ribozyme (parent)
chain: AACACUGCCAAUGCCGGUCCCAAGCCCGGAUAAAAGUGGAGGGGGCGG

- Variants of: B1
- method summary: self-cleavage, relative activity (ratio to wild type); higher = more cleavage; co-transcriptional
For each of the variants below, state its self-cleavage.
One number for each entry.

Give self-cleavage for each listed item.
1. A10G
2. A22G G38A

Result string:
1.02
0.106
